System: 786-0 complex spheroid viability
Assay: Anticancer human tumor 786-0 cell line growth inhibition;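 further: spheroids exposed to agents for seven days before readout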
Conditions: second compound 0.316 µM; first compound 1 µM; stronger effect = lower value

# MOLECULE, U, viability, T/C
measured = [
    ("Nc1ncn(C2CC(O)C(CO)O2)c(=O)n1 (stereo not drawn) + NC1CCC(NC2CC2c2ccccc2)CC1", "%", 63.1),
    ("O=C(c1cc(Cc2n[nH]c(=O)c3ccccc23)ccc1F)N1CCN(C(=O)C2CC2)CC1 + NC1CCC(NC2CC2c2ccccc2)CC1", "%", 104),
    ("COc1cc(Nc2ncc3c(n2)-c2ccc(Cl)cc2C(c2c(F)cccc2OC)=NC3)ccc1C(=O)O + NC1CCC(NC2CC2c2ccccc2)CC1", "%", 43.7),
    ("CC1(C)CCC(CN2CCN(c3ccc(C(=O)NS(=O)(=O)c4ccc(NCC5CCOCC5)c([N+](=O)[O-])c4)c(Oc4cnc5[nH]ccc5c4)c3)CC2)=C(c2ccc(Cl)cc2)C1 + NC1CCC(NC2CC2c2ccccc2)CC1", "%", 120),
    ("COc1ccc([C@@H](O)c2cc(-c3ncnc4cc(N5CCOCC5)ccc34)c(F)cc2Cl)nn1 + NC1CC1c1ccc(-c2cccc(O)c2)cc1", "%", 86.9),
    ("COc1cc(Nc2ncc3c(n2)-c2ccc(Cl)cc2C(c2c(F)cccc2OC)=NC3)ccc1C(=O)O + NC1CC1c1ccc(-c2cccc(O)c2)cc1", "%", 46.4),
    ("COc1ccc([C@@H](O)c2cc(-c3ncnc4cc(N5CCOCC5)ccc34)c(F)cc2Cl)nn1 + NC1CCC(NC2CC2c2ccccc2)CC1", "%", 110),
    ("CC1COCCN1c1cc(C2(S(C)(=N)=O)CC2)nc(-c2ccnc3[nH]ccc23)n1 (stereo not drawn) + NC1CCC(NC2CC2c2ccccc2)CC1", "%", 38.1),
]

====

Tested on: 786-0 complex spheroid viability
Assay: Anticancer human tumor 786-0 cell line growth inhibition;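 further: spheroids exposed to agents for seven days before readout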
Details: second compound 0.316 µM; first compound 1 µM; stronger effect = lower value

# COMPOUND, EXPERIMENTAL_TARGET, U, viability, T/C
data = [
    ("CC1(C)CCC(CN2CCN(c3ccc(C(=O)NS(=O)(=O)c4ccc(NCC5CCOCC5)c([N+](=O)[O-])c4)c(Oc4cnc5[nH]ccc5c4)c3)CC2)=C(c2ccc(Cl)cc2)C1 + NC1CC1c1ccc(-c2cccc(O)c2)cc1", "786-0 complex spheroid viability", "%", 111),
    ("CC(C)c1c(-c2ccccc2)nc2c(C#N)c[nH]n2c1=O + NC1CC1c1ccc(-c2cccc(O)c2)cc1", "786-0 complex spheroid viability", "%", 121),
    ("CC1COCCN1c1cc(C2(S(C)(=N)=O)CC2)nc(-c2ccnc3[nH]ccc23)n1 (stereo not drawn) + NC1CC1c1ccc(-c2cccc(O)c2)cc1", "786-0 complex spheroid viability", "%", 49.7),
]

====

Test system: 786-0 complex spheroid viability
Experiment: Anticancer human tumor 786-0 cell line growth inhibition;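 further: spheroids exposed to agents for seven days before readout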
Conditions: second compound 0.1 µM; first compound 0.000949 µM; stronger effect = lower value
Measured viability, T/C, listed per entry for reference.

# MOLECULE, viability, T/C
measured = [
    ("Nc1ncn(C2CC(O)C(CO)S2)c(=O)n1 (stereo unspecified) + NC1CC1c1ccc(-c2cccc(O)c2)cc1", "117%"),
    ("Nc1ccn(C2OC(CO)C(O)C2(F)F)c(=O)n1 (stereo unspecified) + NC1CCC(NC2CC2c2ccccc2)CC1", "4.09%"),
    ("CCc1c2c(nc3ccc(O)cc13)-c1cc3c(c(=O)n1C2)COC(=O)[C@]3(O)CC + NC1CCC(NC2CC2c2ccccc2)CC1", "5.59%"),
    ("CCc1c2c(nc3ccc(O)cc13)-c1cc3c(c(=O)n1C2)COC(=O)[C@]3(O)CC + NC1CC1c1ccc(-c2cccc(O)c2)cc1", "4.23%"),
    ("Nc1ncn(C2CC(O)C(CO)S2)c(=O)n1 (stereo unspecified) + NC1CCC(NC2CC2c2ccccc2)CC1", "127%"),
    ("Nc1ccn(C2OC(CO)C(O)C2(F)F)c(=O)n1 (stereo unspecified) + NC1CC1c1ccc(-c2cccc(O)c2)cc1", "10.3%"),
]

====

Tested on: 786-0 complex spheroid viability
Assay: Anticancer human tumor 786-0 cell line growth inhibition;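 further: spheroids exposed to agents for seven days before readout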
Conditions: second compound 1 µM; first compound 0.00949 µM; stronger effect = lower value
From the text: Multicellular complex tumor spheroid response to LSD1 Inhibitor Iadademstat in combination with a variety of drugs and investigational agents in selected tumor cell lines The current study was undertaken to assess response to LSD1 inhibitors in combination with standard-of-care drugs and investigational agents in solid tumor complex spheroid models as well as in the K-562 leukemia. […] Compounds. […] If the clinical Cmax for an agent had not been determined, the highest concentration tested was 10 microM. […]
MEASURED_PARAMETER: viability, T/C (%)

# MOLECULE, MEASURED_PARAMETER, TEST_RESULT
rows = [
    ("O=C(C=Cc1cccc(S(=O)(=O)Nc2ccccc2)c1)NO + NC1CC1c1ccc(-c2cccc(O)c2)cc1", "viability, T/C", 106),
    ("Nc1ncn(C2CC(O)C(CO)S2)c(=O)n1 (configuration not stated) + NC1CC1c1ccc(-c2cccc(O)c2)cc1", "viability, T/C", 110),
    ("CCc1c2c(nc3ccc(O)cc13)-c1cc3c(c(=O)n1C2)COC(=O)[C@]3(O)CC + NC1CC1c1ccc(-c2cccc(O)c2)cc1", "viability, T/C", 4.57),
    ("Nc1ncn(C2CC(O)C(CO)S2)c(=O)n1 (configuration not stated) + NC1CCC(NC2CC2c2ccccc2)CC1", "viability, T/C", 128),
    ("Nc1ccccc1NC(=O)c1ccc(CNC(=O)OCc2cccnc2)cc1 + NC1CC1c1ccc(-c2cccc(O)c2)cc1", "viability, T/C", 103),
    ("COc1cc(C2c3cc4c(cc3C(OC3OC5COC(C)OC5C(O)C3O)C3COC(=O)C23)OCO4)cc(OC)c1O (configuration not stated) + NC1CCC(NC2CC2c2ccccc2)CC1", "viability, T/C", 118),
    ("CCN(c1cc(-c2ccc(CN3CCOCC3)cc2)cc(C(=O)NCc2c(C)cc(C)[nH]c2=O)c1C)C1CCOCC1 + NC1CC1c1ccc(-c2cccc(O)c2)cc1", "viability, T/C", 98.8),
]

====

System: 786-0 complex spheroid viability
Test: Anticancer human tumor 786-0 cell line growth inhibition;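 further: spheroids exposed to agents for seven days before readout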
Conditions: curve of first compound; second compound 0.316 µM
Description: Multicellular complex tumor spheroid response to LSD1 Inhibitor Iadademstat in combination with a variety of drugs and investigational agents in selected tumor cell lines The current study was undertaken to assess response to LSD1 inhibitors in combination with standard-of-care drugs and investigational agents in solid tumor complex spheroid models as well as in the K-562 leukemia. […] Compounds. […] If the clinical Cmax for an agent had not been determined, the highest concentration tested was 10 microM. […]
Measured IC50, listed per entry for reference.

# MOLECULE, EXPERIMENTAL_TARGET, BOUND_SIGN, IC50 (nM)
records = [
    ("CCc1c2c(nc3ccc(O)cc13)-c1cc3c(c(=O)n1C2)COC(=O)[C@]3(O)CC + NC1CCC(NC2CC2c2ccccc2)CC1", "786-0 complex spheroid viability", "<", 0.949),
    ("CCc1c2c(nc3ccc(O)cc13)-c1cc3c(c(=O)n1C2)COC(=O)[C@]3(O)CC + NC1CC1c1ccc(-c2cccc(O)c2)cc1", "786-0 complex spheroid viability", "<", 0.949),
    ("COc1cc(Nc2ncc3c(n2)-c2ccc(Cl)cc2C(c2c(F)cccc2OC)=NC3)ccc1C(=O)O + NC1CC1c1ccc(-c2cccc(O)c2)cc1", "786-0 complex spheroid viability", "=", 638),
    ("CC1COCCN1c1cc(-c2ccnn2C)c2ccnc(-c3ccn[nH]3)c2n1 (centres undefined) + NC1CC1c1ccc(-c2cccc(O)c2)cc1", "786-0 complex spheroid viability", "=", 45.3),
]

====

System: 786-0 complex spheroid viability
Assay: Anticancer human tumor 786-0 cell line growth inhibition;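 further: spheroids exposed to agents for seven days before readout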
Settings: second compound 10 µM; first compound 0.003 µM; stronger effect = lower value
Description: Multicellular complex tumor spheroid response to LSD1 Inhibitor Iadademstat in combination with a variety of drugs and investigational agents in selected tumor cell lines The current study was undertaken to assess response to LSD1 inhibitors in combination with standard-of-care drugs and investigational agents in solid tumor complex spheroid models as well as in the K-562 leukemia. […] Compounds. […] If the clinical Cmax for an agent had not been determined, the highest concentration tested was 10 microM. […]
Measured viability, T/C, listed per entry for reference.

# COMPOUND, viability, T/C, %
records = [
    ("Nc1ccn(C2OC(CO)C(O)C2(F)F)c(=O)n1 (stereo unspecified) + NC1CCC(NC2CC2c2ccccc2)CC1", 2.62),
    ("Nc1ncn(C2CC(O)C(CO)S2)c(=O)n1 (stereo unspecified) + NC1CCC(NC2CC2c2ccccc2)CC1", 91.8),
    ("CCc1c2c(nc3ccc(O)cc13)-c1cc3c(c(=O)n1C2)COC(=O)[C@]3(O)CC + NC1CC1c1ccc(-c2cccc(O)c2)cc1", 4.49),
    ("Nc1ncn(C2CC(O)C(CO)S2)c(=O)n1 (stereo unspecified) + NC1CC1c1ccc(-c2cccc(O)c2)cc1", 100),
    ("Nc1ccn(C2OC(CO)C(O)C2(F)F)c(=O)n1 (stereo unspecified) + NC1CC1c1ccc(-c2cccc(O)c2)cc1", 3.61),
    ("CCc1c2c(nc3ccc(O)cc13)-c1cc3c(c(=O)n1C2)COC(=O)[C@]3(O)CC + NC1CCC(NC2CC2c2ccccc2)CC1", 4.29),
]
